- MEASURED_TARGET: G-protein coupled bile acid receptor 1 (Homo sapiens, UniProt Q8TDU6)
- Sequence (Q8TDU6 whole entry): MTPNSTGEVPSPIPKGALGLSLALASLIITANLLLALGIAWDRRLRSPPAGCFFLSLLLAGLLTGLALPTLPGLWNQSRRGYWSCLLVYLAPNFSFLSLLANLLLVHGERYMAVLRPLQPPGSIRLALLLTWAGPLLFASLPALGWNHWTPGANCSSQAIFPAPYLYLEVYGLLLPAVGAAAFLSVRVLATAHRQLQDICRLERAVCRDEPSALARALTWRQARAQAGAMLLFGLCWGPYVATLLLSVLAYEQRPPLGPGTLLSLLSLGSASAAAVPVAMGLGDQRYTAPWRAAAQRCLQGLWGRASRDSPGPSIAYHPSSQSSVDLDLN
- TEST_PROTOCOL: Agonist activity at TGR5 in human HEK293 cells assessed as increase in cAMP production
- Type: cell-based
pEC50: −log10 of the molar value.
TEST_READOUT: pEC50

The following molecules have reported results that may help.
{"MOLECULE": "FC(F)(F)c1ccc(CNCc2cc3ccsc3nc2-c2ccsc2)cc1", "MEASURED_TARGET": "G-protein coupled bile acid receptor 1 (Homo sapiens, UniProt Q8TDU6)", "pEC50": "> 5.00"}
{"MOLECULE": "CC(C)n1ncc2cc(CNCc3ccc(C(F)(F)F)cc3)c(-c3ccsc3)cc21", "MEASURED_TARGET": "G-protein coupled bile acid receptor 1 (Homo sapiens, UniProt Q8TDU6)", "pEC50": "> 5.00"}

Quote pEC50 reported for `O=c1c2cccnc2nc(-c2cncc(Cl)c2)n1NCc1ccc(Cl)cc1F` please.
> 5.00

Quote pEC50 reported for `Cc1noc2cc(Cl)c(Oc3ccncc3C(=O)N3CCN(C4CC4)c4ccccc43)cc12` please.
9.37

Quote pEC50 reported for `O=c1c2ccccc2nc(-c2ccc(F)cc2)n1NCc1ccc(Br)cc1` please.
> 5.00

Quote pEC50 reported for O=C(c1cc(C(F)(F)F)cc(C(F)(F)F)c1)N1CCCn2cccc2C1c1ccccc1 (configuration not stated) please.
> 5.00

Quote pEC50 reported for `Fc1ccc(-n2c(COc3cccc4cnccc34)nc3ccccc32)c(Cl)c1` please.
6.64

Quote pEC50 reported for Fc1cccc(F)c1-c1ccncc1CN1C(c2ccco2)=NOC1c1ccccc1 (configuration not stated) please.
> 7.00

Quote pEC50 reported for `O=c1c2nccnc2nc(-c2ccc(F)cc2)n1CCc1ccc(Cl)cc1` please.
> 5.00

----------
Reported EC50 is given for each of the following compounds.
- MEASURED_TARGET: G-protein coupled bile acid receptor 1 (Homo sapiens, UniProt Q8TDU6)
- TEST_PROTOCOL: Agonist activity at human TGR5 transfected in CHO cells assessed as increase in cAMP production
- Type: cell-based

The following compounds have reported results that may help.
{"COMPOUND": "Cc1ccccc1[C@H](C/C(=N/O)C1CCC(=O)N(C)C1)c1ccc(S(C)(=O)=O)cc1 (some centres undefined)", "TEST_READOUT": "EC50", "ENDPOINT_VALUE": "29 nM"}
{"COMPOUND": "Cc1cc(/C(C[C@H](c2ccc(C3C[C@@H]4C(C(=O)O)[C@@H]4C3)cc2)c2ccc(F)cc2F)=N\\O)ccn1 (some centres undefined)", "TEST_READOUT": "EC50", "ENDPOINT_VALUE": "1 nM"}

Quote EC50 reported for `Cc1ccccc1[C@H](C/C(=N/O)c1ccc(=O)n(C)n1)c1ccc(Br)cc1` please.
6 nM

Quote EC50 reported for `COc1cc(F)ccc1-c1ccncc1N(C)C(=O)c1cc(C(F)(F)F)cc(S(=O)(=O)N2CC3(COC3)C2)c1` please.
9 nM
